Target: T1, Rb^P R451C (human, UniProt P06400 380-788, R451C)
T1 construct: also called variant 5
T1 sequence (looked up): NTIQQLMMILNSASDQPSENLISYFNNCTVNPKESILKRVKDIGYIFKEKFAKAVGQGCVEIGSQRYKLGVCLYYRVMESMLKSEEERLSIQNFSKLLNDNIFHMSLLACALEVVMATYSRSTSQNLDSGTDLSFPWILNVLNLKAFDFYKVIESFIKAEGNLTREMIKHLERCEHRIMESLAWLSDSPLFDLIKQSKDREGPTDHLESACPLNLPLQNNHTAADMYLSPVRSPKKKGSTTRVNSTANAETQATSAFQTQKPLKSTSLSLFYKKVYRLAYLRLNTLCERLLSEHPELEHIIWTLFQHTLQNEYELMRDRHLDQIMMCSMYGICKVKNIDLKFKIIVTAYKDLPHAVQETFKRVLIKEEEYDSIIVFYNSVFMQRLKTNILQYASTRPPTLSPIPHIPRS
Test: fluorescence polarisation; 25 °C; unlabeled Rb^P titrated against 1.5 nM TMR-E2F1^TD or 7.5 nM TMR-E7^LxCxE; 25 mM Tris pH 8.0, 200 mM NaCl, 1 mM DTT, 0.1% Tween-20; 2 min incubation; quadratic fit; apparent Kd for the variants, Kd for WT
Conditions: both partners purified
No end group written: not given here. TMR = tetramethyl rhodamine dye
readout: pKd
Please express pKd as -log10 of the molar concentration.

# lookup: pKd of {TMR}-GEGIRDLFDCDFGDLTPLD (also called E2F^TD; source: synthetic peptide, bought: GenScript) [TMR-E2F1^TD, peptide of the E2F1 transactivation domain]
7.48

Requested field: pKd. Item: DLYCYEQLN (also: TMR label, position not given here, source: synthetic peptide, bought: GenScript) [TMR-E7^LxCxE, LxCxE peptide of the E7 oncoprotein from HPV]
8.15
